test system: guinea pig basilar artery; assay: Recording of tension: relaxation of isolated guinea pig basilar artery contracted with prostaglandin F2α; conditions: guinea pig basilar artery; 10 μM
outcome_measure: relaxation at 10 μM

# compound, outcome_measure, endpoint_value
records = [
    ("COc1cc(CNC(=O)CCCC/C=C/C(C)C)ccc1O [capsaicin]", "relaxation at 10 μM", "completely relaxed"),
    ("NCCO [ethanolamine]", "relaxation at 10 μM", "inactive"),
    ("CCCCC/C=C\\C/C=C\\C/C=C\\C/C=C\\CCCC(=O)NCCO [anandamide, arachidonylethanolamide]", "relaxation at 10 μM", "completely relaxed"),
    ("CCCCC/C=C\\C/C=C\\C/C=C\\C/C=C\\CCCC(=O)O [arachidonic acid]", "relaxation at 10 μM", "inactive"),
]
